Reported pIC50 values follow for various molecules
# testedTarget: dopamine receptors
# method: Affinity to dopamine receptors (receptor binding)
# settings: membrane fraction of corpus striatum of the rat, radioactive labelled dopamine as ligand
When answering, recall that pIC50 equals minus log10 of the concentration in mol/L, and write that number alone.

Example cases with answers are listed next.
{"molecule": "CCNC(=O)OC(CCN1CCN(CCOC(c2ccc(F)cc2)c2ccc(F)cc2)CC1)c1ccccc1 (stereo not shown)", "testedTarget": "dopamine receptors", "pIC50": 7.77}
{"molecule": "OC(CCN1CCN(CCOC(c2ccc(F)cc2)c2ccc(F)cc2)CC1)c1ccccc1 (stereo not shown)", "testedTarget": "dopamine receptors", "pIC50": 7.88}
{"molecule": "O=C(CCN1CCN(CCOC(c2ccc(F)cc2)c2ccc(F)cc2)CC1)c1ccccc1", "testedTarget": "dopamine receptors", "pIC50": 7.10}

Next:
Summary for this molecule, CCC(O)(CCN1CCN(CCOC(c2ccc(F)cc2)c2ccc(F)cc2)CC1)c1ccccc1 (stereo not shown) : pIC50 is 7.20
